# protocol description: AP1 Signaling Pathway (AID 357);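 note: ME-180 reporter cells stimulated with EGF at its EC50 level; % is set by controls: 0 for no effect and ±100 for the full control effect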
# run conditions: ME-180 (cervical carcinoma) AP-1-bla reporter, EGF-induced, beta-lactamase ratio, 5 h; series mostly up to 17.2 µM
Inconclusive results are not listed. Active and inactive are the calls of the source. Calls come from the whole dose curve; as a rule, active = well fitted curve in either direction with a large enough effect (not every such curve was filed as active); inconclusive = small, poorly fitted or top-dose-only effect, or another doubt; inactive = flat fitted curve, though single readings scatter.

{"compound": "COc1cc(S(C)=O)ccc1-c1nc2ncccc2[nH]1 (stereo not drawn)", "outcome": "inactive"}
{"compound": "O=C1NCCN1c1ncc([N+](=O)[O-])s1", "outcome": "inactive"}
{"compound": "N[C@H](CC(=O)O)C(=O)O", "outcome": "inactive"}
{"compound": "CC(=O)[C@H]1CC[C@H]2[C@@H]3C=CC4=CC(=O)CC[C@@]4(C)[C@H]3CC[C@]12C", "outcome": "inactive"}
{"compound": "CN1CCc2c(c3ccccc3n2Cc2ccccc2)C1", "outcome": "inactive"}
{"compound": "CCCOc1cc(N)ccc1C(=O)OCCN(CC)CC", "outcome": "inactive"}
{"compound": "Oc1ccc(/C=C/c2cc(O)cc(O)c2)cc1", "outcome": "inactive"}
{"compound": "CCc1cn([C@H]2C[C@H](O)[C@@H](CO)O2)c(=O)[nH]c1=O", "outcome": "inactive"}

----------
# Tested on: CP217
# protocol description: qHTS profiling for inhibitors of Plasmodium falciparum proliferation (AID 504749); note: nearly all actives have a fitted effect of over 60% in size
# run conditions: P. falciparum in erythrocytes, SYBR Green DNA, 72 h; series mostly up to 28.7 µM
Results filed as inconclusive are left out. Activity calls are given as the source filed them. Calls follow the shape of the dose curve; as a rule, active = well fitted inhibition curve with a large enough effect; inconclusive = small, poorly fitted or top-dose-only effect; inactive = flat fitted curve, though single readings scatter.
Labels: active, inactive

{"compound": "O=S(=O)(O)CCCS(=O)(=O)O", "assigned label": "inactive"}
{"compound": "CN(Cc1ccccc1)Cc1ccccc1", "assigned label": "inactive"}
{"compound": "CC(=O)[C@H]1CC[C@H]2[C@@H]3C=CC4=CC(=O)CC[C@@]4(C)[C@H]3CC[C@]12C", "assigned label": "inactive"}
{"compound": "COC(=O)C(CN)c1c[nH]c2ccc(OC)cc12 (stereo not drawn)", "assigned label": "inactive"}
{"compound": "Cc1ncc[nH]1", "assigned label": "inactive"}
{"compound": "COc1ccc(-c2noc(CC(=O)O)c2-c2ccc(OC)cc2)cc1", "assigned label": "inactive"}
{"compound": "C[Se]CC[C@H](N)C(=O)O", "assigned label": "inactive"}
{"compound": "O=[N+]([O-])c1c(Cl)cccc1-c1c[nH]cc1Cl", "assigned label": "inactive"}
{"compound": "CC(=O)Oc1cccc2c1C(=O)c1c(OC(C)=O)cc(C(=O)O)cc1C2=O", "assigned label": "inactive"}
{"compound": "CC1=CCC2CC1C2(C)C (stereo not drawn)", "assigned label": "inactive"}
{"compound": "CCN(CC)CCCC(C)Nc1cc(/C=C/c2ccccc2Cl)nc2cc(Cl)ccc12 (stereo not drawn)", "assigned label": "active"}
{"compound": "CCC(Cc1c(I)cc(I)c(O)c1I)C(=O)O (stereo not drawn)", "assigned label": "inactive"}
{"compound": "CSCCC(N)C(=O)O (stereo not drawn)", "assigned label": "inactive"}

----------
# protocol description: Drug repurposing screens with cells derived from glioblastoma tumor samples (AID 1345199); note: % is set by controls: 0 for no effect and ±100 for the full control effect; nearly all actives have a fitted effect of over 40% in size
# run conditions: GBM patient neurospheres viability, ATP luminescence, 48 h; at 46.1 µM (top of the series); tumour line C
Records with an inconclusive call do not appear.
Quick reference for activity, negative = cell killing among some molecules

{"molecule": "C[Si](C)(C)O[Si](C)(C)C", "unit descriptor": "%", "activity, negative = cell killing": -22.1}
{"molecule": "CCCCC(O)c1ccccc1 (configuration not stated)", "unit descriptor": "%", "activity, negative = cell killing": 0.769}
{"molecule": "O=C(O)c1ccc(NC(=O)[C@H](Cc2ccc(O)cc2)NC(=O)c2ccccc2)cc1", "unit descriptor": "%", "activity, negative = cell killing": -6.93}
{"molecule": "C[C@]12CC[C@@H]3c4ccc(OC(=O)c5ccccc5)cc4CC[C@H]3[C@@H]1CC[C@@H]2O", "unit descriptor": "%", "activity, negative = cell killing": -17.8}
{"molecule": "O=C(O)C1=C(CSc2nnnn2CS(=O)(=O)O)CS[C@@H]2[C@H](NC(=O)[C@H](O)c3ccccc3)C(=O)N12", "unit descriptor": "%", "activity, negative = cell killing": -17.1}
{"molecule": "O=C(CO)[C@@H](O)[C@H](O)[C@@H](O)C(=O)O", "unit descriptor": "%", "activity, negative = cell killing": -9.16}
{"molecule": "O=C(NCCNCC(O)COc1ccc(O)cc1)N1CCOCC1 (configuration not stated)", "unit descriptor": "%", "activity, negative = cell killing": -0.52}
{"molecule": "CC(C)(C)C(=O)OCC(=O)[C@H]1CC[C@H]2[C@@H]3CCC4=CC(=O)CC[C@]4(C)[C@H]3CC[C@]12C", "unit descriptor": "%", "activity, negative = cell killing": 0.589}
{"molecule": "CC(=O)O[C@@H]1CC2CCC1(C)C2(C)C (some centres not stated)", "unit descriptor": "%", "activity, negative = cell killing": -4.87}
{"molecule": "CC12CCC(C[N+](C)(CCC[N+](C)(C)C)C1)C2(C)C (configuration not stated)", "unit descriptor": "%", "activity, negative = cell killing": 21.9}
{"molecule": "CC(=O)[C@@]1(O)CC[C@H]2[C@@H]3C=C(Cl)C4=CC(=O)[C@@H]5C[C@@H]5[C@]4(C)[C@H]3CC[C@@]21C", "unit descriptor": "%", "activity, negative = cell killing": -13.6}
{"molecule": "CC/C=C\\C/C=C\\C/C=C\\CCCCCCCC(=O)O", "unit descriptor": "%", "activity, negative = cell killing": 5.73}
{"molecule": "CC(C)[C@@H]1CC[C@@H](C)C[C@H]1O", "unit descriptor": "%", "activity, negative = cell killing": -14.4}
{"molecule": "CN(C)CCOc1ccc(/C(=C(/CCCl)c2ccccc2)c2ccccc2)cc1", "unit descriptor": "%", "activity, negative = cell killing": -18.9}
{"molecule": "NC[C@@H]1O[C@H](O[C@H]2[C@@H](O)[C@H](O[C@@H]3[C@@H](O)[C@H](N)C[C@H](N)[C@H]3O[C@H]3O[C@H](CO)[C@@H](O)[C@H](O)[C@H]3N)O[C@@H]2CO)[C@H](N)[C@@H](O)[C@@H]1O", "unit descriptor": "%", "activity, negative = cell killing": -32.1}
{"molecule": "FC(F)(F)C(F)(F)C(F)(F)C(F)(F)C(F)(F)C(F)(F)F", "unit descriptor": "%", "activity, negative = cell killing": -26.4}
{"molecule": "C[C@@H](O)[C@H]1C(=O)N2C(C(=O)[O-])=C(SC3Cn4cnc[n+]4C3)[C@H](C)[C@H]12 (some centres not stated)", "unit descriptor": "%", "activity, negative = cell killing": -6.91}
{"molecule": "Cc1cc(C(=O)NCCc2ccc(S(=O)(=O)NC(=O)NN3CCCCCC3)cc2)no1", "unit descriptor": "%", "activity, negative = cell killing": -10.9}
{"molecule": "CC[C@H]1OC(=O)[C@H](C)[C@@H](O[C@H]2C[C@@](C)(OC)[C@@H](O)[C@H](C)O2)[C@H](C)[C@@H](O[C@@H]2O[C@H](C)C[C@H](N(C)C)[C@H]2O)[C@](C)(O)C[C@@H](C)CN(C)[C@H](C)[C@@H](O)[C@]1(C)O", "unit descriptor": "%", "activity, negative = cell killing": -5.95}
{"molecule": "CC[C@H](C)[C@@H]1NC(=O)[C@H](Cc2ccc(O)cc2)NC(=O)[C@@H](N)CSSC[C@@H](C(=O)N2CCC[C@H]2C(=O)N[C@@H](CC(C)C)C(=O)NCC(N)=O)NC(=O)[C@H](CC(N)=O)NC(=O)[C@H](CCC(N)=O)NC1=O", "unit descriptor": "%", "activity, negative = cell killing": -6.16}
{"molecule": "CC(C)(C)CC(C)(C)c1cc(Cc2cc(C(C)(C)CC(C)(C)C)cc(-n3nc4ccccc4n3)c2O)c(O)c(-n2nc3ccccc3n2)c1", "unit descriptor": "%", "activity, negative = cell killing": -23.5}
{"molecule": "CC(C)CN(C[C@@H](OP(=O)(O)O)[C@H](Cc1ccccc1)NC(=O)O[C@H]1CCOC1)S(=O)(=O)c1ccc(N)cc1", "unit descriptor": "%", "activity, negative = cell killing": -18.7}
